Target: DLA2 ΔCat 450 (Chlamydomonas reinhardtii, UniProt A0A2K3DW88 32-449)
Assay: MST
observation type: pKd
In plain terms, pKd is the concentration in mol/L turned into minus its base-10 logarithm.

Problem: I'd like to know its pKd. The binder in question is UUUACGGAGAAAUUAAAACUUUAAAAAAAUUAACAUAUGACCAUGGAUC (ssRNA) [psbA 5'-UTR probe native]
Solution: 6.33

The reported numbers originate from paper doi:10.1101/831339.
